# TARGET_OR_TEST_SYSTEM: biotinylated α-elapitoxin-Dpp2d from Dendroaspis polylepis (Dendroaspis polylepis (black mamba), UniProt C0HJD7)
# Sequence (C0HJD7 whole entry): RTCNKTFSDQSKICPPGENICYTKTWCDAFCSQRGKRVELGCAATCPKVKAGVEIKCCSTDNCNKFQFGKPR
# EXPERIMENT_NOTES: BLI; […]; association at pH 7.4, dissociation at pH 7.4; 1:1 global fit, […]
# RECORDED_CONDITIONS: both partners purified
RECORDED_ENDPOINT: kon (M⁻¹ s⁻¹)
API: value field is a number in M⁻¹ s⁻¹; no unit string.

Solved cases (2 shown):
C05 Fab, parental mAb 368_01_C05, with the N-glycosylation site of CDR-L3 removed (C05-NS) (Fab, V domains shown) VH: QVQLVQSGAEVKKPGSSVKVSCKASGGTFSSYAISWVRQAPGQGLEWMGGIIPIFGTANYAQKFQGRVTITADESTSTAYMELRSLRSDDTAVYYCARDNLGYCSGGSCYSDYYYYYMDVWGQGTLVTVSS VL: NFMLTQPHSVSESPGKTVTISCTRSSGSIASTYVHWYQQRPGSAPTTVIYEDNQRPSGVPDRFSGSIDSSSNSASLTISGLKTEDEADYYCQSYDSSSGSVVFGGGTKLTVL ... 76000
A04 Fab (Fab, V domains shown) VH: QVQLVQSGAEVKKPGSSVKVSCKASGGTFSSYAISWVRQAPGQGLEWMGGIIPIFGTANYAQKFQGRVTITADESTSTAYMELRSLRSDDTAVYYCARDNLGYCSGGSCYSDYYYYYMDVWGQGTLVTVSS VL: SYELTQPPSMSVAPGQTARITCGGDYIGGESVHWYQQKPGRAPVAVVYDDTHRPSGIPERFSGANSGNTATLTISKVEAGDEADYYCQVWDVSSDHVVFGGGTKLTVL ... 161000

# context switch: different binder, same kon
QUERY: So what does the record say about kon for E01 Fab (Fab, V domains shown) VH: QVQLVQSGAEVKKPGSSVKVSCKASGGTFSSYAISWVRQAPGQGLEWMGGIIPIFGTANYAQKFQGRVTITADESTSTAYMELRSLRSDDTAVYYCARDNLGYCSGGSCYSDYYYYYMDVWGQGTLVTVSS VL: NFMLTQPRSVSESPGKTVTISCTRSSGSIGSDYVHWYQQRPGSSPTTVIYEDNRRPSGVPDRFSGSIASSANSASLTISGLRPEDEADYYCQSYDSTTNHVVFGGGTKVTVL ?
RESULT: 138000
